The measured values listed here are drawn from patent US8653056B2.

Item-by-item account of Conc. of dissolved substance
Assay: Concentration of dissolved triterpenoid in the aqueous cyclodextrin solution (HPLC-ESI MS)
Format: physicochemical
Conditions: solution method A: water, saturated sodium hydrogencarbonate solution, ethanol, 2-hydroxypropyl-γ-cyclodextrin, 50° C.
Field: numeric (µg/mL). Do not append units.

C=C(C)[C@@H]1CC[C@]2(C(=O)O[C@@H]3O[C@H](CO)[C@@H](O)[C@H](O)[C@H]3O)CC[C@]3(C)[C@H](CC[C@@H]4[C@@]5(C)CC[C@H](O)C(C)(C)[C@@H]5CC[C@]43C)[C@@H]12
59000
CCOC(=O)[C@@]12CC[C@]3(C)[C@H](CC[C@@H]4[C@@]5(C)CC[C@H](OC(=O)CC(C)(C)CC(=O)O)C(C)(C)[C@@H]5CC[C@]43C)C1=C(C(C)C)C(=O)C2
58000
C=C(C)[C@@H]1CC[C@]2(C(=O)OCC(=O)O)CC[C@]3(C)[C@H](CC[C@@H]4[C@@]5(C)Cc6nccnc6C(C)(C)[C@@H]5CC[C@]43C)[C@@H]12
56000
C=C(C)C1CCC2(COC(=O)CCC(=O)O)CCC3(C)C(CCC4C5(C)CCC(OC(=O)CCC(=O)O)C(C)(C)C5CCC43C)C12 (centres unmarked) [1a, betulin dihemisuccinate]
54000
CC1(C)CCC23CCC4(C)C(CCC5C6(C)CC(NC(=O)CCC(=O)O)C(O)C(C)(C)C6CCC54C)C2C1OC3 (centres unmarked)
37000

// sample CCOC(=O)[C@@]12CC[C@]3(C)[C@H](CC[C@@H]4[C@@]5(C)CC[C@H](OC(=O)c6ccccc6C(=O)O)C(C)(C)[C@@H]5CC[C@]43C)C1=C(C(C)C)C(=O)C2 , its Conc. of dissolved substance was 28000

// sample CC(C)C1=C2[C@H]3CC[C@@H]4[C@@]5(C)CC[C@H](OC(=O)CC(C)(C)CC(=O)O)C(C)(C)[C@@H]5CC[C@@]4(C)[C@]3(C)CC[C@@]2(C(=O)O)CC1=O , its Conc. of dissolved substance was 44000

// sample CCOC(=O)[C@@]12CC[C@]3(C)[C@H](CC[C@@H]4[C@@]5(C)CC[C@H](OC(=O)COCC(=O)O)C(C)(C)[C@@H]5CC[C@]43C)C1=C(C(C)C)C(=O)C2 , its Conc. of dissolved substance was 44000

// sample CC(C)C1=C2[C@H]3CC[C@@H]4[C@@]5(C)CC[C@H](OC(=O)CC(C)(C)C(=O)O)C(C)(C)[C@@H]5CC[C@@]4(C)[C@]3(C)CC[C@@]2(C(=O)O)CC1=O , its Conc. of dissolved substance was 49000

// sample C=C(C=O)[C@@H]1CC[C@]2(C(=O)OCC)CC[C@]3(C)[C@H](CC[C@@H]4[C@@]5(C)CC[C@H](OC(=O)CCC(=O)O)C(C)(C)[C@@H]5CC[C@]43C)[C@@H]12 , its Conc. of dissolved substance was 55000

// sample COC(=O)[C@@]12CC[C@]3(C)[C@H](CC[C@@H]4[C@@]5(C)CC[C@H](OC(=O)CC(C)(C)C(=O)O)C(C)(C)[C@@H]5CC[C@]43C)C1=C(C(C)C)C(=O)C2 , its Conc. of dissolved substance was 44000

---

Experiment: Concentration of dissolved triterpenoid in the aqueous cyclodextrin solution (HPLC-ESI MS)
Format: physicochemical
Details: solution method B: water, propylene glycol, 2-hydroxypropyl-γ-cyclodextrin, 50° C.
Description: Into the resulting colourless, viscous solution, soluble triterpene derivative (1.50 g) is added at once and the mixture is again vigorously stirred at the temperature of 50° C. […] HPLC-ESI MS technique was used or the determination of the concentration of dissolved triterpenoids. The samples were measured in one analytical batch with calibration solutions and blind control. […]
Item-by-item account of Conc. of dissolved substance
Field: numeric (mg/mL). Do not append units.

Solved entries (count: 5):
C=C(C)[C@@H]1CC[C@]2(C(=O)OCC)CC[C@]3(C)[C@H](CC[C@@H]4[C@@]5(C)CC[C@H](O[C@@H]6O[C@H](CO)[C@@H](O)[C@H](O)[C@H]6O)C(C)(C)[C@@H]5CC[C@]43C)[C@@H]12
43
C=C(C)[C@@H]1CC[C@]2(C(=O)O[C@@H]3O[C@H](CO)[C@@H](O)[C@H](O)[C@H]3O)CC[C@]3(C)[C@H](CC[C@@H]4[C@@]5(C)CC[C@H](O)C(C)(C)[C@@H]5CC[C@]43C)[C@@H]12
70
C=C(C)[C@@H]1CC[C@]2(CO[C@@H]3O[C@H](CO)[C@@H](O)[C@H](O)[C@H]3O)CC[C@]3(C)[C@H](CC[C@@H]4[C@@]5(C)CC[C@H](O[C@@H]6O[C@H](CO)[C@@H](O)[C@H](O)[C@H]6O)C(C)(C)[C@@H]5CC[C@]43C)[C@@H]12 [1c, betulin diglucoside]
55
CCOC(=O)[C@@]12CC[C@]3(C)[C@H](CC[C@@H]4[C@@]5(C)CC[C@H](O[C@@H]6C[C@@H](OC(C)=O)[C@@H](OC(C)=O)[C@@H](COC(C)=O)O6)C(C)(C)[C@@H]5CC[C@]43C)C1=C(C(C)C)C(=O)C2
60
COC(=O)[C@@]12CC[C@]3(C)[C@H](CC[C@@H]4[C@@]5(C)CC[C@H](O[C@@H]6C[C@@H](OC(C)=O)[C@H](OC(C)=O)[C@@H](COC(C)=O)O6)C(C)(C)[C@@H]5CC[C@]43C)C1=C(C(C)C)C(=O)C2
61

API: the following record is the query input.
// sample CC1(C)C(OC2OC(CO)C(O)C(O)C2O)CCC2(C)C1CCC1(C)C2CCC2C(=O)C(COC3OC(CO)C(O)C(O)C3O)(C(=O)O)CCC21C (centres unmarked) , its Conc. of dissolved substance was 79
